All figures here come from patent US20240238281A1.

Experiment description: Pharmacokinetic parameters in rat plasma
Assay type: in vivo, SD rats
Experimental context: SD, po, p.o. 5 mg/kg
Measured metric: AUC(0-t)

Problem: // lookup AUC(0-t) for C[C@@H]1CN(C(=O)[C@@H]2CN(C3CCOCC3)C[C@H]2c2ccc(F)cc2F)C[C@H](C)N1c1ccc(F)cc1 (single isomer, unassigned)
Result: 0.796 µM·h

* * *

Experiment description: Drug concentration in brain tissues of rats, oral gavage
Format: in vivo
Experimental context: SD, plasma, rat, p.o. 20 mg/kg, 1 hour, read-out: Plasma drug concentration
Measured metric: concentration at 1 h (nM)
Just the number in nM, nothing appended.

Problem: // lookup concentration at 1 h for C[C@@H]1CN(C(=O)[C@@H]2CN(C3CCOCC3)C[C@H]2c2ccc(F)cc2F)C[C@H](C)N1c1ccc(F)cc1 (single isomer, unassigned)
Result: 899
